target: BRAF V599E (Homo sapiens, UniProt P15056, V600E); construct: amino acids 416-766 for B-RAF V599E and 306-648 for C-RAF; test: B-RAF V599E direct TR-FRET assay (fluorescein-MEK1 substrate); conditions: 100 μM ATP; read-out: Inhibitor IC50, TR-FRET Direct BRAF V599E
Sequence (P15056 416-766 V600E): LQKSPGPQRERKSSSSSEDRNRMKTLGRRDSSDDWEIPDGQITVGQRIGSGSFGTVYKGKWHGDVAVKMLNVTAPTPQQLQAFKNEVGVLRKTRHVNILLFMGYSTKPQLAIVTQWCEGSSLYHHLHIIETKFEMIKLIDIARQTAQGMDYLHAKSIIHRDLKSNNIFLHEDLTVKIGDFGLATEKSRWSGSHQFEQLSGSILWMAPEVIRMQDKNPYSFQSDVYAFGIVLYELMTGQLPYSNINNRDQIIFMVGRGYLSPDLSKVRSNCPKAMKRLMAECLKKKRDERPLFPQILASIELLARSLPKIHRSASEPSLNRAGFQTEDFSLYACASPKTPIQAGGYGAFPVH
pIC50: −log10 of the molar value.
measurement_kind: pIC50

pIC50 on BRAF V599E (Homo sapiens, UniProt P15056, V600E) for `COc1cccc(-c2cc(=O)c3ccccc3o2)c1N` is < 4.30

* * *

tested on: CRAF-MEK1-ERK2; assay: C-RAF-MEK1-ERK2 triple cascade FRET assay; type: biochemical; conditions: 100 μM ATP; read-out: Inhibitor IC50, FRET Triple CRAF-MEK1-ERK2
measurement_kind: IC50 (nM)
One number for each entry, in nM.

Guide cases for IC50, answers given:
{"columns": ["compound", "system", "IC50 [nM]"],
 "data": [
  ["COc1cccc(-c2cc(=O)c3ccccc3o2)c1N [PD98059]", "CRAF-MEK1-ERK2", 380],
  ["O=C1Nc2ccc(I)cc2/C1=C/c1cc(Br)c(O)c(Br)c1 [GW5074]", "CRAF-MEK1-ERK2", 9],
  ["Cc1ccc(NC(=O)c2cccc(N(C)C)c2)cc1NC(=O)c1ccc(O)cc1 [ZM336372]", "CRAF-MEK1-ERK2", 30]
]}

The record that follows has no IC50 shown yet.
Lab note: N#CC(=C(/N)Sc1ccccc1N)/C(C#N)=C(/N)Sc1ccccc1N [U0126] gave IC50 of 66

* * *

target: CRAF (Homo sapiens, UniProt P04049, Y340D/Y341D); assay: C-RAF direct TR-FRET assay (fluorescein-MEK1 substrate); conditions: 100 μM ATP; read-out: Inhibitor IC50, TR-FRET Direct CRAF
Sequence (P04049 306-648 Y340D/Y341D): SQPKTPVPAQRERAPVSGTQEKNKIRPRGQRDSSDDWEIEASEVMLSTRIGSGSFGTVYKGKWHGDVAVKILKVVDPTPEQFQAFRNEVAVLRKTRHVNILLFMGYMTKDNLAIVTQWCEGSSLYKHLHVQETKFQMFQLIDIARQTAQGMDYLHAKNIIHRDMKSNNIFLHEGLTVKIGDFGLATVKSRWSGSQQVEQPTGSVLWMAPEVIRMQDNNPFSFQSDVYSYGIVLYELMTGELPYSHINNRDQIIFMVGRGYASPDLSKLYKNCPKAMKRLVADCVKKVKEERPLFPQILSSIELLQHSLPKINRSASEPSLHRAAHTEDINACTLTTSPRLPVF
measurement_kind: IC50

IC50 on CRAF (Homo sapiens, UniProt P04049, Y340D/Y341D) for COc1cccc(-c2cc(=O)c3ccccc3o2)c1N [PD98059] is > 50 µM

* * *

molecular target: BRAF (Homo sapiens, UniProt P15056)
Sequence (P15056 whole entry): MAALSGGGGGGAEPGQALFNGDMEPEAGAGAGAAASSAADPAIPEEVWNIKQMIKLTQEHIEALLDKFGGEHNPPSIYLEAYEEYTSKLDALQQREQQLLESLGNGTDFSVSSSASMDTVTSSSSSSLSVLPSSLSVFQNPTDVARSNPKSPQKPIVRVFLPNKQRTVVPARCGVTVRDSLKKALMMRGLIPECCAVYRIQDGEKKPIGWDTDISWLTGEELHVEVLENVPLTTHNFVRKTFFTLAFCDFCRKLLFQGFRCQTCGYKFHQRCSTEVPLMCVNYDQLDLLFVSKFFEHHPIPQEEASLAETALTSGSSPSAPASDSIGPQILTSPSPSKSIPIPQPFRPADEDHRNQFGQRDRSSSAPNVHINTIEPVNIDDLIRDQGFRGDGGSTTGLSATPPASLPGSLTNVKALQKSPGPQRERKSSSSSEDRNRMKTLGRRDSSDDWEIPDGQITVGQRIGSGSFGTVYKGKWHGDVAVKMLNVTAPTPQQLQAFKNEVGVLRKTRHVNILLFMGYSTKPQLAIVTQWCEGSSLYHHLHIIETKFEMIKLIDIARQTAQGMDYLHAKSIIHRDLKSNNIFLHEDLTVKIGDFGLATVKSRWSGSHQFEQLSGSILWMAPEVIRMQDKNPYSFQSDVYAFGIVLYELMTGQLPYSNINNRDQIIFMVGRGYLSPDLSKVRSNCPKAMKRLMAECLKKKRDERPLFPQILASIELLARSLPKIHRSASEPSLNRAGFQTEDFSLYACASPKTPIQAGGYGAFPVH
measurement_kind: IC50

Lab note: `COc1cccc(-c2cc(=O)c3ccccc3o2)c1N` gave IC50 of > 50 µM

* * *

test system: BRAF V599E-MEK1-ERK2; assay: B-RAF V599E-MEK1-ERK2 triple cascade FRET assay; format: biochemical; conditions: 100 μM ATP; read-out: Inhibitor IC50, FRET Triple BRAF V599E-MEK1-ERK2
pIC50: −log10 of the molar value.
fulfilled means recorded pIC50 is 7 or above; not fulfilled means it is below 7.

# count of solved cases: 2
{"columns": ["mol", "system", "cat"],
 "data": [
  ["COc1cccc(-c2cc(=O)c3ccccc3o2)c1N", "BRAF V599E-MEK1-ERK2", "not fulfilled"],
  ["Cc1ccc(NC(=O)c2cccc(N(C)C)c2)cc1NC(=O)c1ccc(O)cc1", "BRAF V599E-MEK1-ERK2", "fulfilled"]
]}

Attention now shifts to the item below.
Is pIC50 for `O=C1Nc2ccc(I)cc2/C1=C/c1cc(Br)c(O)c(Br)c1` at or above 7?
fulfilled

* * *

molecular target: ERK2 (Homo sapiens)
Sequence (P28482 whole entry): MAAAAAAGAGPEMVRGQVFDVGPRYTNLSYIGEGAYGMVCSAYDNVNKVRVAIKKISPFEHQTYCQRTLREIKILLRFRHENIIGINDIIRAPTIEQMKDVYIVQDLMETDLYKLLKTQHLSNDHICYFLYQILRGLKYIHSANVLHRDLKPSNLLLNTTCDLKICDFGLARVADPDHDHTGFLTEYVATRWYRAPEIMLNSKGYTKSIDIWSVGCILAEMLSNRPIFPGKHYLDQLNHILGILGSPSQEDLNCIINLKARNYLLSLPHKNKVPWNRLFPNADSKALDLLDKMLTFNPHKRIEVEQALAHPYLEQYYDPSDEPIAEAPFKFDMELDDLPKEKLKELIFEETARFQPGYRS
pIC50: −log10 of the molar value.
Provide the reported pIC50 of each item.

Guide cases for pIC50, answers given:
{"columns": ["mol", "pIC50"],
 "data": [
  ["COc1cccc(-c2cc(=O)c3ccccc3o2)c1N", "< 4.30"],
  ["N#CC(=C(/N)Sc1ccccc1N)/C(C#N)=C(/N)Sc1ccccc1N", "< 4.30"],
  ["Cc1ccc(NC(=O)c2cccc(N(C)C)c2)cc1NC(=O)c1ccc(O)cc1", "< 4.30"]
]}

Lab note: `O=C1Nc2ccc(I)cc2/C1=C/c1cc(Br)c(O)c(Br)c1` gave pIC50 of < 6.40

Data credit: paper PMC2774691
